test system: NCI-H23 lung; experiment: NCI-60 one-dose screen, 48 h; conditions: 10 µM unless noted
Compounds without any hit were thinned out: in the full panel of roughly 83,000, 20% have a hit. The source made the active and inactive calls. The calls were made as follows: active = growth percent below 10; inactive = the rest.
Form entry, call: pick from active, inactive

Please review the following examples before continuing.
[
  {
    "smiles-str": "c1ccc(Cc2cccc[n+]2C(c2ccccc2)c2ccccc2)cc1",
    "class": "inactive"
  },
  {
    "smiles-str": "Cc1ccc(C(=O)N(CCCN)[C@@H](c2nc3cc(Cl)ccc3c(=O)n2Cc2ccccc2)C(C)C)cc1",
    "class": "active"
  },
  {
    "smiles-str": "O=C(Nc1ncc(Cc2cccc(C(F)(F)F)c2)s1)c1ccc2c(c1)OCCO2",
    "class": "inactive"
  },
  {
    "smiles-str": "C#CCn1cnc2cnc(Nc3cccc(NC(=O)CCl)c3)nc21",
    "class": "active"
  }
]

(Q) Test call for this molecule, please: Cc1ccc(S(=O)(=O)Nc2cc(Sc3ccccc3)c(O)c3ccccc23)cc1
(A) inactive

* * *

tested on: M14 melanoma; assay: NCI-60 one-dose screen, 48 h (100 = growth as untreated, 0 = no growth, -100 = all killed); details: 10 µM unless noted
About 83,000 compounds went through this panel and 20% of them were active in at least one assay; those are over-represented in the sample as a whole.
Give measured growth for each item. Keep answers brief.
Give bare numbers, in %.

[
  {
    "molecule": "CCOC(=O)C1=C(C)N=C2SC=C(c3ccc(F)cc3)N2[C@H]1c1cn(-c2ccccc2)nc1-c1ccc(Cl)cc1",
    "growth / %": 98.6
  }
]

List reported growth for each of these molecules:
1. Cc1ccc(Cl)cc1N1CCN(C(=O)[C@@H]2C[C@@H]2c2ccc(F)cc2)CC1
2. CCCCC1COc2cccc3c2N1C=C/C3=C\C(=O)N(C)c1cccc(Cl)c1 (stereo not given)
3. COc1cc(C=O)ccc1Oc1ccc([N+](=O)[O-])cc1[N+](=O)[O-]
4. C=CCOc1ccc(/C=C2\SC(=S)N(CCc3ccc(O)cc3)C2=O)cc1

(A)
93.4
102
102
103

* * *

system: SW-620 colon; experiment: NCI-60 one-dose screen, 48 h; conditions: 10 µM unless noted
Compounds without any hit were thinned out: in the full panel of roughly 83,000, 20% have a hit. Active and inactive are the calls of the source. Rule for the calls: active = growth percent below 10; inactive = the rest.
Hi! Could you answer with just one of these? active, inactive

[
  {
    "molecule": "CCNC(=O)Oc1ccc(/C(=C(/C)Cc2ccc(OC)cc2)c2ccc(OCCN(CC)CC)cc2)cc1",
    "target-system": "SW-620 colon",
    "class": "inactive"
  }
]

(Q) Identify the outcome logged in this assay for the molecule shown: CCN(CC)/C([O-])=c1\cccc\c1=C1\N=C(c2ccccc2)N=C1[n+]1ccc(-c2ccccc2)cc1
(A) inactive

(Q) What classification did NC(N)=NC(N)=NCCCc1ccco1 end up with in this test?
(A) inactive

(Q) Identify the outcome logged in this assay for the molecule shown: CCCCCO/N=C\c1c2c(O)c3c(O)c(C)c4c(c3c1O)C(=O)C(C)(O/C=C\C(OC)C(C)C(OC(C)=O)C(C)C(O)C(C)C(O)C(C)/C=C\C=C(\C)C(=O)N2)O4 (stereo not given)
(A) inactive

(Q) I'd appreciate the recorded outcome for O=C1/C(=C/c2ccc(-c3ccccc3C(F)(F)F)o2)SC(=S)N1CCc1ccc(O)cc1 from this test.
(A) inactive

(Q) Would you mind telling me which call this test gave COc1ccc(Cl)cc1Nc1nc(C(F)(F)F)ccc1C(=O)N/N=C/c1ccc(N(C)C)cc1 ?
(A) inactive

(Q) For CCn1cc(C(=O)NN=C2CCCC2)c(=O)c2ccc(C)nc21 , what call appears in the results of this test?
(A) inactive

(Q) Hi team, can someone confirm the assay call for Cc1ccc2[nH]c(=S)[nH]c(=O)c2c1 ?
(A) inactive

* * *

test system: HCT-116 colon; assay: NCI-60 one-dose screen, 48 h; settings: 10 µM unless noted
Compounds without any hit were thinned out: in the full panel of roughly 83,000, 20% have a hit. Calls of active or inactive are those of the source. The calls were made as follows: active = growth percent below 10; inactive = the rest.
Output constraint: value belongs to Y = active, N = inactive

Completed entries (count: 2):
[
  {
    "molecule": "N#CC1=C(N)Oc2c(sc3c(Br)cccc23)C1c1ccccn1 (centres undefined)",
    "class": "N"
  },
  {
    "molecule": "CCOC(=O)c1c(-c2ccc(C)cc2)c(C#N)c(=O)n(-c2cccc(C(F)(F)F)c2)c1N",
    "class": "N"
  }
]

(Q) Which outcome was entered for the molecule Cn1cc(-c2nc3c(F)cc4[nH]ncc4c3c3c2CCCC3)c(C(F)F)n1 in this test?
(A) N

(Q) What classification did CCOC(=O)c1cnn(-c2ccc(S(N)(=O)=O)cc2)c1N end up with in this test?
(A) N

(Q) What classification did O=C(NNc1ccccc1)C1CCCN1 (centres undefined) end up with in this test?
(A) N

(Q) Fill in: this test's call for COc1ccccc1/C=C1\COc2ccc(O)cc2C1=O is ___
(A) N

(Q) Record lookup: outcome of this test for O=C(NCCCN1CCCCC1)c1ccc(-c2nc3ccc4[nH]ncc4c3c3c2CCCC3)cc1 ?
(A) N

* * *

Test system: NCI-H322M lung
Experiment: NCI-60 one-dose screen, 48 h (100 = growth as untreated, 0 = no growth, -100 = all killed)
Settings: 10 µM unless noted
Procedure: Growth inhibition of the NCI-H322M human Non-Small Cell Lung tumor cell line is measured as a screen for anti-cancer activity. Cells are grown in 96 well plates and exposed to the test compound for 48 hours. Compounds are tested at a single concentration, which is 10^-5 M for most compounds. The reported endpoint is percent growth (GI% or GIPRCNT), where numbers from 0 - 100% represent growth inhibition, and numbers from -100% - 0 represent cell death. […]
About 83,000 compounds went through this panel and 20% of them were active in at least one assay; those are over-represented in the sample as a whole.
Would you kindly list growth for each of these molecules?
Give bare numbers, in %.

[
  {
    "molecule": "Cc1oc2c(Cc3ccc(NC(=O)c4ccc(Cl)cc4)cc3)ncnc2c1C(=O)NO",
    "recorded-metric": "growth",
    "numeric-result": 93.1
  },
  {
    "molecule": "COc1cc2ncnc(Nc3ccc(F)c(Cl)c3)c2cc1OCC(=O)N1CCCCC1",
    "recorded-metric": "growth",
    "numeric-result": 29
  }
]

State recorded growth for all listed molecules.
1. CCNC(=S)n1nc(SC)c(C(=O)OCC)c1N
2. Nc1nc(N)c2c(n1)NC(c1ccc(Cl)cc1)CC(c1cccc(Nc3ccncc3)c1)=N2 (stereo not given)
3. CN1CCN(c2ccc(/C=C/C(=O)c3ccc(O)cc3)cc2)CC1

(A)
[91.8, 63.9, 101]

* * *

Please go through the items and note down their growth.
system: UO-31 renal; assay: NCI-60 one-dose screen, 48 h (100 = growth as untreated, 0 = no growth, -100 = all killed); details: 10 µM unless noted
About 83,000 compounds went through this panel and 20% of them were active in at least one assay; those are over-represented in the sample as a whole. Active and inactive are the calls of the source. The calls were made as follows: active = growth percent below 10; inactive = the rest.

As a guide, the following entries are already answered.
[
  {
    "smiles-str": "CCOc1ccccc1NC(=O)c1cc2ccccc2cc1O",
    "result": "23.7% (inactive)"
  },
  {
    "smiles-str": "C=C1C(=O)O[C@H]2[C@H]1CC/C(COC(=O)NCCCCNC(=O)OC/C1=C/CC[C@@]3(C)O[C@H]3[C@H]3OC(=O)C(=C)[C@@H]3CC1)=C\\CC[C@@]1(C)O[C@@H]21",
    "result": "79.8% (inactive)"
  },
  {
    "smiles-str": "CN1CCN(Cc2ccc(NC(=O)c3nc4ccc5[nH]ncc5c4c4c3CCCC4)cc2C(F)(F)F)CC1",
    "result": "-85.9% (active)"
  }
]

Quick batch: growth for everything below.
1. COc1cc(OC)cc(-c2ccc(-c3ccc(C(=N)N)cn3)s2)c1
2. Cc1ccc(-c2nc([P+](c3ccccc3)(c3ccccc3)c3ccccc3)c(Nc3ccccc3)o2)cc1
3. CCOC(=O)c1c(-c2ccc(OC)cc2)c(C#N)c2c(C#N)c(N)nn2c1N
4. O=C1CCc2c(sc3[nH]c(=S)n(Cc4ccc(Cl)cc4)c(=O)c23)C1
5. CCN(CC)CC#CCOC(=O)[C@]1(C)CCC[C@]2(C)c3ccc(C(C)C)cc3CC[C@@H]12

(A)
1: 94.2% (inactive); 2: -23.5% (active); 3: 47.6% (inactive); 4: -6.54% (active); 5: 65% (inactive)

(Q) Please look at this molecule and report its growth: Cc1nc2cccc(NCCCCC(=O)NO)c2c(=O)n1-c1ccccc1
(A) 56.6% (inactive)

* * *

system: SF-539 CNS; assay: NCI-60 one-dose screen, 48 h (100 = growth as untreated, 0 = no growth, -100 = all killed); details: 10 µM unless noted
This is part of a sample that, as a whole, favours compounds with a hit. Of some 83,000 tested, about 20% had one in any assay. Calls of active or inactive are those of the source. The calls were made as follows: active = growth percent below 10; inactive = the rest.
Please provide measured growth for the entries that follow.

Example cases with answers are listed next.
[
  {
    "compound": "Nc1ccc(/C=N/Nc2ccnc3c(N)cccc23)c2cccnc12",
    "target-system": "SF-539 CNS",
    "growth": "-94.9% (active)"
  },
  {
    "compound": "O=C1OCC2=C1C(c1cccc([N+](=O)[O-])c1)c1cc3c(cc1N2CCO)CCC3 (stereo not given)",
    "target-system": "SF-539 CNS",
    "growth": "-16.4% (active)"
  }
]

Below are some compounds; for each one, tell me its growth.
1. Cc1ccc(C(=O)Nc2nc3c(s2)CN(Cc2ccccc2)CC3)cn1
2. N=c1c2c(-c3ccccc3)c(-c3ccccc3)oc2ncn1NC(=O)c1cccnc1
3. COc1ccc(/C(C)=C(\c2ccc(OCCN3CCOCC3)cc2)c2ccc(OC(=O)C3CCCCC3)cc2)cc1

(A)
["103% (inactive)", "97.2% (inactive)", "94.7% (inactive)"]
